// values below are reported Ki
study.target: CRTH2 receptor (hCRTH2) (Homo sapiens, UniProt Q9Y5Y4)
Construct: expressed in transfected cells; host or cells: HEK cells (HEK-hCRTH2 cell line), membranes
Sequence (Q9Y5Y4 whole entry): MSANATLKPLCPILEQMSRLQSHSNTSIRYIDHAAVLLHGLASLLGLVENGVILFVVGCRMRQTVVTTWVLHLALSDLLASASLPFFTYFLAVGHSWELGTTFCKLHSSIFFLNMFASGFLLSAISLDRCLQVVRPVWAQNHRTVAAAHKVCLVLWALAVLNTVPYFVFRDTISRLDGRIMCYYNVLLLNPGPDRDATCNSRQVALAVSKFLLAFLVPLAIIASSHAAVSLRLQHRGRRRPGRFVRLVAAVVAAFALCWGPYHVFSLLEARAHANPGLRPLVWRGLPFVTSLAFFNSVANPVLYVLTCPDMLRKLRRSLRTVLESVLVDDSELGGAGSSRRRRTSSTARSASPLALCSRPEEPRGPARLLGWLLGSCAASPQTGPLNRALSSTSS
assay.explanation: Radioligand binding assay ([3H]PGD2 competition, membranes of HEK-hCRTH2 cell line)
condition.summary: 3.0 nM [3H]PGD2, HEK-hCRTH2 membranes, 60 min, room temperature; read-out: Ki

Some solved cases for reference:
compound: O=C(O)CCCCc1nc2cc(-c3cc([C@H](O)c4ccccc4)on3)ccc2c(=O)n1-c1ccc(F)cc1
result: ≤ 10 nM

compound: O=C(O)CCCCc1nc2cc(-c3cc(COCc4cccc(-c5ccccc5)c4)on3)ccc2c(=O)n1-c1ccc(F)cc1 [Example 282]
result: ≤ 10 nM

compound: C[C@]1(C(=O)N[C@@H]2c3ccccc3C[C@@H]2O)CC(c2ccc3c(=O)n(-c4ccc(F)cc4)c(CCCCC(=O)O)nc3c2)=NO1
result: 10 to 50 nM

compound: CC1(c2nc3ccc(Cl)cc3[nH]2)CC(c2ccc3c(=O)n(-c4ccc(F)cc4)c(CCCCC(=O)O)nc3c2)=NO1 (stereo not shown)
result: ≤ 10 nM

Input CC1(c2ncc3ccccn23)CC(c2ccc3c(=O)n(-c4ccc(F)cc4)c(CCCCC(=O)O)nc3c2)=NO1 (stereo not shown) . Output Ki: 10 to 50 nM

Input "Cc1ccccc1-c1cc(-c2ccc3c(=O)n(-c4ccc(F)cc4)c(CCCCC(=O)O)nc3c2)no1" . Output Ki: ≤ 10 nM

Input "C[C@]1(c2nc3ccc(Cl)cc3o2)CC(c2ccc3c(=O)n(-c4ccc(F)cc4)c(CCCCC(=O)O)nc3c2)=NO1" . Output Ki: ≤ 10 nM

Input "C[C@@H](O)c1cc(-c2ccc3c(=O)n(-c4ccc(F)cc4)c(CCCCC(=O)O)nc3c2)no1" . Output Ki: 10 to 50 nM

Input "O=C(O)CCCCc1nc2cc(C3=NOC4(C3)Cc3ccccc3C4)ccc2c(=O)n1-c1ccc(F)cc1" . Output Ki: ≤ 10 nM
